These measurements were taken from patent US11286228B2.

# tested.system: cyclophilin
# experimental.protocol: Cis-trans isomerase inhibitory activity (chymotrypsin-coupled Suc-AAPF-pNA cleavage, absorbance 390 nm)
# Assay type: biochemical
# recorded.conditions: cyclophilin, chymotrypsin, Suc-AAPF-pNA; read-out: Test Example 1: cis-trans isomerase inhibitory activity (IC50)
List of IC50 values.

Worked examples, 10 compounds total:
| compound | assay.endpoint | result |
| --- | --- | --- |
| CCCCOC(=O)c1ccccc1C=C(N)c1ccc(Cc2ccccc2)cc1 [Compound 111] | IC50 | 20 to 200 nM |
| CC(C)C(C)c1ccc(C(C#N)=Cc2ccccc2C(=O)O)cc1 (stereo not shown) [Compound 55] | IC50 | 20 to 200 nM |
| N#CC(=Cc1ccccc1Cc1c(Cl)cccc1Cl)c1ccc([N+](=O)[O-])cc1 [Compound 37] | IC50 | 20 to 200 nM |
| CC(C)(C)Cc1ccc(C(Cl)=Cc2ccccc2C(=O)OC2CCCCC2)cc1 [Compound 121] | IC50 | ≤ 20 nM |
| CCCCCc1ccc(C=Cc2ccccc2C(=O)OCCCC)cc1 [Compound 132] | IC50 | ≤ 20 nM |
| CC(C)(C)Cc1ccc(C(N)=Cc2ccccc2C(=O)OCc2ccccc2)cc1 [Compound 106] | IC50 | 20 to 200 nM |
| N#CC(=Cc1ccccc1N1CCOCC1)c1ccc([N+](=O)[O-])cc1 [Compound 30] | IC50 | 200 to 2000 nM |
| Cc1cccc(C=Cc2ccc(CC(C)(C)C)cc2)c1C(=O)O [Compound 139] | IC50 | ≤ 20 nM |
| CCCCOC(=O)c1ccccc1C=C(F)c1ccc(CC(C)(C)C)cc1 [Compound 112] | IC50 | ≤ 20 nM |
| CCCCOC(=O)c1c(C=C(C)c2ccc(CC(C)(C)C)cc2)ccc(C)c1C [Compound 86] | IC50 | 20 to 200 nM |

Endpoint output: IC50 of CCCCOC(=O)c1c(C=C(F)c2ccc(CC(C)(C)C)cc2)ccc(C)c1C [Compound 116] . Value?
≤ 20 nM

Given the entry CCCCOC(=O)c1ccccc1C=C(C)c1ccc(CC2CCCCC2)cc1 [Compound 96] , report its measured IC50.
20 to 200 nM

Looking for the measured IC50 of CCOc1ccc(C(C#N)=Cc2ccccc2C(=O)O)cc1 [Compound 17] , can you help?
200 to 2000 nM

GET /values?readout=IC50&item= CC(=Cc1ccccc1C(=O)OC(C)C)c1ccc(CC(C)(C)C)cc1 [Compound 89]
20 to 200 nM

IC50 lookup needed for N#CC(=Cc1ccccc1CC1CCCCC1)c1ccc([N+](=O)[O-])cc1 [Compound 41] , thanks.
≤ 20 nM

Field request: IC50 | item: N#CC(=Cc1ccccc1CCc1ccccc1)c1ccc([N+](=O)[O-])cc1 [Compound 38]
20 to 200 nM

# IC50 lookup, item CC(C)(C)c1ccc(CCc2ccccc2C=C(C#N)c2ccc([N+](=O)[O-])cc2)cc1 [Compound 45]
20 to 200 nM

I am curious: what IC50 value has been reported for N#CC(=Cc1ccccc1CCc1ccc(Cl)cc1)c1ccc([N+](=O)[O-])cc1 [Compound 48] ?
20 to 200 nM

What value of IC50 has been recorded for this entry: N#CC(=Cc1ccccc1C1CCCCC1)c1ccc([N+](=O)[O-])cc1 [Compound 31]
20 to 200 nM

For N#CC(=Cc1ccccc1C(=O)O)c1ccc(CC2CC2)cc1 [Compound 61] , what is its reported IC50?
≤ 20 nM

Form field: reported IC50 of COc1ccccc1C=C(C#N)c1ccc(Cc2ccccc2)cc1 [Compound 20]
≤ 20 nM

Using the record for Cc1ccc(C=Cc2ccc(CC(C)(C)C)cc2)c(C(=O)O)c1 [Compound 140] , report its IC50.
≤ 20 nM

Would you mind telling me what IC50 value was observed for COc1ccccc1C=C(C#N)c1ccc(C(C)(C)C)cc1 [Compound 11] ?
200 to 2000 nM

Query: IC50; subject: CC(C)(C)Cc1ccc(C(N)=Cc2ccccc2C(=O)OC2CCCCC2)cc1 [Compound 107]
20 to 200 nM

# query: IC50 of entry CCCCOC(=O)c1c(C)cccc1C=Cc1ccc(CC(C)(C)C)cc1 [Compound 65]
20 to 200 nM

GET /values?readout=IC50&item= CCCCOC(=O)c1c(C)cccc1C=C(C)c1ccc(CC(C)(C)C)cc1 [Compound 83]
20 to 200 nM
